# inhibition values compiled below
- system under test: Prostaglandin G/H synthase 2 (Homo sapiens)
- assay notes: Inhibition of COX-2 (unknown origin) at 3 uM
Provide the reading as a plain figure in %.

See these solved cases before continuing.
CCCCN1CCN(c2ccc(NC(=O)c3ccccc3Nc3cccc(Cl)c3C)cc2)CC1 :: 42.2
Cc1c(Cl)cccc1Nc1ccccc1C(=O)Nc1ccc(N2CCOCC2)cc1 :: 41.6
Cc1c(Cl)cccc1Nc1ccccc1C(=O)Nc1ccc(N2CCN(c3ccccc3)CC2)cc1 :: 27.6

Input: Consider the compound `Cc1c(Cl)cccc1Nc1ccccc1C(=O)Nc1ccc(OC(=O)CO)cc1` and give its measured inhibition.
Output: 24.9

Input: Consider the compound `CCCN1CCN(c2ccc(NC(=O)c3ccccc3Nc3cccc(Cl)c3C)cc2)CC1` and give its measured inhibition.
Output: 36.5
